FYI, the data here is from patent US7276337B2.

Target: Ribonuclease A (Bos taurus)
Sequence (P61823 27-150): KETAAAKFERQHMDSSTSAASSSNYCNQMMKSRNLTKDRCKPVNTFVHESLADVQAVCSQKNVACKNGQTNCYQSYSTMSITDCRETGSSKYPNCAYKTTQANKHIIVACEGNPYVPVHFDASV
Test: Visual detection ribonuclease assay, cleavage of Substrate ODN by RNase A
Type: biochemical, mammalian
Parameters: key: +++ = maximum intensity; ++ = moderate intensity; + = faint but above background; − = negative (identical to background)
Conditions: RNase A 100 pg/ml; visual inspection, UV excitation; Substrate 500 nM; 37° C. 60 minutes
observed.property: Sensitivity of Substrate ODN to Ribonuclease A, relative signal intensity

INSERT INTO results (substance, system_under_test, recorded_value) VALUES
  ('5′ Fluorescein-AcgaA-Dabcyl 3′ (NACGAAN; 5'' fluorescein and 3'' Dabcyl labels, nucleotide chemistry not given here) [SEQ ID NO:12]', 'Ribonuclease A (Bos taurus)', '−'),
  ('5′ Fluorescein-AgaAA-Dabcyl 3′ (NAGAAAN; 5'' fluorescein and 3'' Dabcyl labels, nucleotide chemistry not given here) [SEQ ID NO:9]', 'Ribonuclease A (Bos taurus)', '−'),
  ('5′ Fluorescein-AcggA-Dabcyl 3′ (NACGGAN; 5'' fluorescein and 3'' Dabcyl labels, nucleotide chemistry not given here) [SEQ ID NO:14]', 'Ribonuclease A (Bos taurus)', '+'),
  ('5′ Fluorescein-AagucA-QSY-7 3′ (NAAGUCAN; 5'' fluorescein and 3'' QSY-7 labels, nucleotide chemistry not given here) [SEQ ID NO:27]', 'Ribonuclease A (Bos taurus)', '++'),
  ('5′ Fluorescein-AcuaA-Dabcyl 3′ (NACUAAN; 5'' fluorescein and 3'' Dabcyl labels, nucleotide chemistry not given here) [SEQ ID NO:17]', 'Ribonuclease A (Bos taurus)', '+'),
  ('5′ Fluorescein-AgcuaA-Dabcyl 3′ (NAGCUAAN; 5'' fluorescein and 3'' Dabcyl labels, nucleotide chemistry not given here) [SEQ ID NO:22]', 'Ribonuclease A (Bos taurus)', '++'),
  ('5′ Fluorescein-AuagA-Dabcyl 3′ (NAUAGAN; 5'' fluorescein and 3'' Dabcyl labels, nucleotide chemistry not given here) [SEQ ID NO:16]', 'Ribonuclease A (Bos taurus)', '++'),
  ('5′ Fluorescein-AgucAA-Dabcyl 3′ (NAGUCAAN; 5'' fluorescein and 3'' Dabcyl labels, nucleotide chemistry not given here) [SEQ ID NO:10]', 'Ribonuclease A (Bos taurus)', '−'),
  ('5′ Fluorescein-AgucaA-Dabcyl 3′ (NAGUCAAN; 5'' fluorescein and 3'' Dabcyl labels, nucleotide chemistry not given here) [SEQ ID NO:23]', 'Ribonuclease A (Bos taurus)', '+'),
  ('5′ Fluorescein-AguAA-Dabcyl 3′ (NAGUAAN; 5'' fluorescein and 3'' Dabcyl labels, nucleotide chemistry not given here) [SEQ ID NO:7]', 'Ribonuclease A (Bos taurus)', '−'),
  ('5′ Fluorescein-AacAA-Dabcyl 3′ (NAACAAN; 5'' fluorescein and 3'' Dabcyl labels, nucleotide chemistry not given here) [SEQ ID NO:8]', 'Ribonuclease A (Bos taurus)', '+++'),
  ('5′ Fluorescein-AauggcA-QSY-7 3′ (NAAUGGCAN; 5'' fluorescein and 3'' QSY-7 labels, nucleotide chemistry not given here) [SEQ ID NO:30]', 'Ribonuclease A (Bos taurus)', '+++');
